Measured log10 of IC50 of individual entries
- Tested on: human G12D mutant KRAS-positive pancreatic cancer line AsPC-1
- experimental.details: Non-anchorage-dependent cell growth inhibition, spheroid 3D cell culture (Test Example 3)
- Assay type: cell-based
- measurement.parameters: Homo sapiens, ASPC1, 144 h, AsPC-1 spheroid 3D culture, 6 days, CellTiter Glo 2.0
recorded.metric: log10 of IC50 (log10 of the value in nM)

| compound | log10 of IC50 |
| --- | --- |
| CCn1nccc1-c1ccc([C@H](CO)NC(=O)[C@@H]2C[C@@H](O)CN2C(=O)[C@H](C(C)C)n2cc(-c3ccc(COc4c(-c5c(C)c(F)cc6[nH]ncc56)c(C5CC5)cc5c(N(C)[C@H]6CCNC6)nc(OC[C@H]6CCCO6)nc45)cc3)nn2)cc1 (atropisomer, axis not shown) | 0.85 |
| CO[C@@H](C)COc1nc(N(C)[C@H]2CCNC2)c2cc(C3CC3)c(-c3c(C)c(F)cc4[nH]ncc34)c(OCc3ccc(-c4cn([C@H](C(=O)N5C[C@H](O)C[C@H]5C(=O)N[C@@H](CO)c5ccc(-c6scnc6C)cc5)C(C)C)nn4)c(F)c3)c2n1 (atropisomer, axis not shown; (M)) | 1.23 |
| Cc1ncsc1-c1ccc([C@H](CO)NC(=O)[C@@H]2C[C@@H](O)CN2C(=O)[C@H](C(C)C)n2cc(-c3ccc(COc4c(-c5c(C)c(F)cc6[nH]ncc56)c(C5CC5)cc5c(N(C)[C@H]6CCNC6)nc(OC[C@H](C)F)nc45)cc3)nn2)cc1 (atropisomer, axis not shown) | 0.95 |
| Cc1ncsc1-c1ccc([C@H](CO)NC(=O)[C@@H]2C[C@@H](O)CN2C(=O)[C@H](C(C)C)n2cc(-c3ccc(COc4c(-c5c(C)c(F)cc6[nH]ncc56)c(C5CC5)cc5c(OC6CNC6)nc(OC6CCOCC6)nc45)cc3)nn2)cc1 (atropisomer, axis not shown; (M)) | 1.96 |
| Cc1ncsc1-c1ccc([C@H](CO)NC(=O)[C@@H]2C[C@@H](O)CN2C(=O)[C@H](C(C)C)n2cc(-c3ccc(COc4c(-c5c(C)c(F)cc6[nH]ncc56)c(C5CC5)nc5c(N6C[C@@H]7C[C@H]6CN7)nc(OC6CCOCC6)nc45)cc3)nn2)cc1 | 1.98 |
| CO[C@@H](C)COc1nc(N[C@H]2CCNC2)c2cc(C3CC3)c(-c3c(C)c(F)cc4[nH]ncc34)c(OCc3ccc(-c4cn([C@H](C(=O)N5C[C@H](O)C[C@H]5C(=O)N[C@@H](CO)c5ccc(-c6scnc6C)cc5)C(C)C)nn4)cc3)c2n1 (atropisomer, axis not shown) | 0.90 |
| CO[C@@H](CF)COc1nc(N(C)[C@H]2CCNC2)c2cc(C3CC3)c(-c3c(C)c(F)cc4[nH]ncc34)c(OCc3ccc(-c4cn([C@H](C(=O)N5C[C@H](O)C[C@H]5C(=O)N[C@@H](CO)c5ccc(-c6scnc6C)cc5)C(C)C)nn4)cc3)c2n1 (atropisomer, axis not shown) | 1.18 |

* * *

- Test system: human G12D mutant KRAS-positive pancreatic cancer line AsPC-1
- experimental.details: Non-anchorage-dependent cell growth inhibition, spheroid 3D cell culture (Test Example 3)
- Assay type: cell-based
- measurement.parameters: Homo sapiens, ASPC1, 144 h, AsPC-1 spheroid 3D culture, 6 days, CellTiter Glo 2.0
Measured IC50 of individual entries

| compound | IC50, nM |
| --- | --- |
| CO[C@@H](C)COc1nc(N(C)[C@H]2CCNC2)c2cc(C3CC3)c(-c3c(C)c(F)cc4[nH]ncc34)c(OCc3ccc(-c4cn([C@H](C(=O)N5C[C@H](O)C[C@H]5C(=O)N[C@@H](CO)c5ccc(N6CCOC6=O)cc5)C(C)C)nn4)cc3)c2n1 (atropisomer, axis not shown) [Example 15] | 7 |
| CO[C@@H](C)COc1nc(O[C@H]2CCNC2)c2cc(C3CC3)c(-c3c(C)c(F)cc4[nH]ncc34)c(OCc3ccc(-c4cn([C@H](C(=O)N5C[C@H](O)C[C@H]5C(=O)N[C@@H](CO)c5ccc(-c6scnc6C)cc5)C(C)C)nn4)cc3)c2n1 (atropisomer, axis not shown) [Example 5] | 10 |
| CCn1nccc1-c1ccc([C@H](CO)NC(=O)[C@@H]2C[C@@H](O)CN2C(=O)[C@H](C(C)C)n2cc(-c3ccc(COc4c(-c5c(C)c(F)cc6[nH]ncc56)c(C5CC5)cc5c(N(C)[C@H]6CCNC6)nc(OC[C@@H]6CCCO6)nc45)cc3)nn2)cc1 (atropisomer, axis not shown) [Example 26] | 3 |
| CO[C@@H](C)COc1nc(O[C@@H]2CCNC2)c2cc(C3CC3)c(-c3c(C)c(F)cc4[nH]ncc34)c(OCc3ccc(-c4cn([C@H](C(=O)N5C[C@H](O)C[C@H]5C(=O)N[C@@H](CO)c5ccc(-c6scnc6C)cc5)C(C)C)nn4)cc3)c2n1 (atropisomer, axis not shown) [Example 52] | 4 |
| CO[C@@H](C)COc1nc(N(C)[C@@H]2CCNC2)c2cc(C3CC3)c(-c3c(C)c(F)cc4[nH]ncc34)c(OCc3ccc(-c4cn([C@H](C(=O)N5C[C@H](O)C[C@H]5C(=O)N[C@@H](CO)c5ccc(-c6scnc6C)cc5)C(C)C)nn4)cc3)c2n1 (atropisomer, axis not shown; (M)) [Example 53] | 10 |
| Cc1c(F)cc2[nH]ncc2c1-c1c(C2CC2)cc2c(N(C)[C@H]3CCNC3)nc(OC[C@H]3CCCO3)nc2c1OCc1ccc(-c2cn([C@H](C(=O)N3C[C@H](O)C[C@H]3C(=O)N[C@@H](CO)c3ccc(-n4cncn4)cc3)C(C)C)nn2)cc1 (atropisomer, axis not shown) [Example 41] | 8 |
| Cc1ncsc1-c1ccc([C@H](CO)NC(=O)[C@@H]2C[C@@H](O)CN2C(=O)[C@H](C(C)C)n2cc(-c3ccc(COc4c(-c5c(C)c(F)cc6[nH]ncc56)c(C5CC5)cc5c(N(C)[C@H]6CCNC6)nc(OCC(C)C)nc45)cc3)nn2)cc1 (atropisomer, axis not shown) [Example 34] | 13 |
| Cc1c(F)cc2[nH]ncc2c1-c1c(C2CC2)cc2c(N(C)[C@H]3CCNC3)cc(OC[C@@H]3CCCO3)nc2c1OCc1ccc(-c2cn([C@H](C(=O)N3C[C@H](O)C[C@H]3C(=O)N[C@@H](CO)c3ccc(-n4ccnc4C)cc3)C(C)C)nn2)cc1 (atropisomer, axis not shown) [Example 27] | 7 |
| Cc1ncsc1-c1ccc([C@H](CO)NC(=O)[C@@H]2C[C@@H](O)CN2C(=O)[C@H](C(C)C)n2cc(-c3ccc(COc4c(-c5c(C)c(F)cc6[nH]ncc56)c(C5CC5)cc5c(N[C@H]6CCNC6)cc(OC6CCOCC6)nc45)cc3)nn2)cc1 [Example 4] | 7 |
| Cc1ncsc1-c1ccc([C@H](CO)NC(=O)[C@@H]2C[C@@H](O)CN2C(=O)[C@H](C(C)C)n2cc(-c3ccc(COc4c(-c5c(C)c(F)cc6[nH]ncc56)c(C5CC5)cc5c(N(C)[C@H]6CCNC6)nc(OC[C@@H]6CCOC6)nc45)cc3)nn2)cc1 (atropisomer, axis not shown) [Example 23] | 12 |
| CO[C@@H](C)COc1nc(N[C@@H]2CCNC2)c2cc(C3CC3)c(-c3c(C)c(F)cc4[nH]ncc34)c(OCc3ccc(-c4cn([C@H](C(=O)N5C[C@H](O)C[C@H]5C(=O)N[C@@H](CO)c5ccc(-c6scnc6C)cc5)C(C)C)nn4)cc3)c2n1 (atropisomer, axis not shown) [Example 51] | 44 |
| CCn1nccc1-c1ccc([C@H](CO)NC(=O)[C@@H]2C[C@@H](O)CN2C(=O)[C@H](C(C)C)n2cc(-c3ccc(COc4c(-c5c(C)c(F)cc6[nH]ncc56)c(C5CC5)cc5c(N(C)[C@H]6CCNC6)nc(OC[C@H]6CCCO6)nc45)cc3)nn2)nc1 (atropisomer, axis not shown) [Example 32] | 24 |
| Cc1ncsc1-c1ccc([C@H](CO)NC(=O)[C@@H]2C[C@@H](O)CN2C(=O)[C@H](C(C)C)n2cc(-c3ccc(COc4c(-c5c(C)c(F)cc6[nH]ncc56)c(C5CC5)cc5c(N(C)[C@H]6CCNC6)nc(OCC(C)(F)F)nc45)cc3)nn2)cc1 (atropisomer, axis not shown) [Example 36] | 19 |

* * *

- target.under.test: KRAS G12D protein (Homo sapiens, UniProt P01116, G12D)
- Construct: host or cells: AsPC-1
- Sequence (P01116 1-188 isoform P01116-2 G12D): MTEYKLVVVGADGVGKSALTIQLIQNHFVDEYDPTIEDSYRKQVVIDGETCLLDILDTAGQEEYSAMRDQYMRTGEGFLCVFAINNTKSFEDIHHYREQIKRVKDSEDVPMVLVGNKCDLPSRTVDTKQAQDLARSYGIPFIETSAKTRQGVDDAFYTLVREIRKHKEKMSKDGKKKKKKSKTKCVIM
- experimental.details: KRAS degradation activity by Cell ELISA in AsPC-1 (Test Example 1)
- Assay type: cell-based
- measurement.parameters: AsPC-1 cells, cultured overnight with compound, corrected with β-actin, read-out: DC50 (50% degradation concentration of the amounts of KRAS)
Measured DC50 of individual entries
recorded.metric: DC50 (nM)

| compound | recorded.metric | value |
| --- | --- | --- |
| Cc1ncsc1-c1ccc([C@H](CO)NC(=O)[C@@H]2C[C@@H](O)CN2C(=O)[C@H](C(C)C)n2cc(-c3ccc(COc4c(-c5c(C)c(F)cc6[nH]ncc56)c(C5CC5)cc5c(N[C@H]6CCNC6)nc(OC6CCOCC6)nc45)cc3)nn2)cc1 (atropisomer, axis not shown) | DC50 | 47 |
| Cc1ncsc1-c1ccc([C@H](CO)NC(=O)[C@@H]2C[C@@H](O)CN2C(=O)[C@H](C(C)C)n2cc(-c3ccc(COc4c(-c5c(C)c(F)cc6[nH]ncc56)c(C5CC5)cc5c(N(C)[C@H]6CCNC6)nc(OC[C@H]6CCOC6)nc45)cc3)nn2)cc1 (atropisomer, axis not shown) | DC50 | 74 |
| CO[C@@H](C)[C@H](C)Oc1nc(N(C)[C@H]2CCNC2)c2cc(C3CC3)c(-c3c(C)c(F)cc4[nH]ncc34)c(OCc3ccc(-c4cn([C@H](C(=O)N5C[C@H](O)C[C@H]5C(=O)N[C@@H](CO)c5ccc(-c6scnc6C)cc5)C(C)C)nn4)cc3)c2n1 (atropisomer, axis not shown) | DC50 | 41 |
| Cc1ncsc1-c1ccc([C@H](CO)NC(=O)[C@@H]2C[C@@H](O)CN2C(=O)[C@H](C(C)C)n2cc(-c3ccc(COc4c(-c5c(C)c(F)cc6[nH]ncc56)c(C5CC5)cc5c(N(C)[C@H]6CCNC6)nc(O[C@@H](C)[C@H](C)O)nc45)cc3)nn2)cc1 (atropisomer, axis not shown) | DC50 | 91 |
| Cc1ncsc1-c1ccc([C@H](CO)NC(=O)[C@@H]2C[C@@H](O)CN2C(=O)[C@H](C(C)C)n2cc(-c3ccc(COc4c(-c5c(C)c(F)cc6[nH]ncc56)c(C5CC5)cc5c(N(C)[C@H]6CCNC6)nc(OCC(C)(C)F)nc45)cc3)nn2)cc1 (atropisomer, axis not shown) | DC50 | 33 |
| CO[C@@H](C)COc1nc(N(C)[C@H]2CCNC2)c2cc(C3CC3)c(-c3c(C)c(F)cc4[nH]ncc34)c(OCc3ccc(-c4cn([C@H](C(=O)N5C[C@H](O)C[C@H]5C(=O)N[C@@H](CO)c5ccc(N6CCOC6=O)cc5)C(C)C)nn4)cc3)c2n1 (atropisomer, axis not shown) | DC50 | 99 |
| CO[C@@H](C)COc1nc(N[C@@H]2CCNC2)c2cc(C3CC3)c(-c3c(C)c(F)cc4[nH]ncc34)c(OCc3ccc(-c4cn([C@H](C(=O)N5C[C@H](O)C[C@H]5C(=O)N[C@@H](CO)c5ccc(-c6scnc6C)cc5)C(C)C)nn4)cc3)c2n1 (atropisomer, axis not shown) | DC50 | 14 |

All values here come from patent US20250206751A1.
